Origin of the recorded values: paper PMC9138683

- Tested on: Plasmodium falciparum Dd2 (chloroquine-resistant)
- experiment notes: In vitro drug susceptibility assay, Dd2 strain (flow cytometry, SYBR Green I / MitoTracker Deep Red)
- Assay type: cell-based
- settings: asynchronous parasites, 72 h, 0.1-100 µM; read-out: IC50 ± SD PfDd2
property name: IC50 (µM)
The response must be a number in µM with no trailing unit.

Field: example entries. Status: answers known.
- COC(=O)Cc1c(SC23CC4CC(CC(C4)C2)C3)[nH]c2ccccc12 [Compound 18]: 15.7
- COC(=O)Cc1c(Sc2ccccc2)[nH]c2ccccc12 [Compound 3]: 18

Notebook: CCCCCCCCCCCCSc1[nH]c2cc(Cl)ccc2c1CC(=O)OC [Compound 21] , IC50 read as 16.9
